Molecular target: Tyrosine-protein kinase ABL2 (Homo sapiens)
Assay: Inhibition of ABL2 (unknown origin) by Nano-syn mobility shift assay
Settings: concentration not given here
readout_label: inhibition

- CN1CCN(Cc2ccc(NC(=O)Nc3ccc(Oc4ccc5ncncc5c4)cc3)cc2C(F)(F)F)CC1: > 50%
- CN1CCN(Cc2ccc(NC(=O)Nc3ccc(Oc4ccc5ncccc5c4)cc3)cc2C(F)(F)F)CC1: > 50%
- CC(C)(C)c1cc(NC(=O)Nc2ccc(Oc3ccc4ncccc4c3)cc2)n(-c2ccc3ncccc3c2)n1: > 50%
- CC(C)(C)c1cc(NC(=O)Nc2ccc(Oc3ccc4ncncc4c3)cc2)n(-c2ccc3ncccc3c2)n1: > 50%
